target_of_assay: Dopamine receptor (Rattus norvegicus) (UniProt P25115+P19020+P30729+P18901+P61169)
assay_comment: Dopamine receptor antagonist activity expressed as ability to inhibit apomorphine-induced climbing behavior in rat on subcutaneous administration.
Assay type: functional, organism-based
We label by threshold. Values of ED50 strictly beneath 30 mg/kg are true (1). Values of 30 mg/kg and up are false (0).

Worked examples, 3 compounds total:
1) COc1cc(N)c(Cl)cc1C(=O)NC1CCCN2CCSCC12 (stereo in doubt; 23)	true (1)
2) COc1cc(N)c(Cl)cc1C(=O)NC1CCN2C(C)CCCC2C1 (stereo unspecified)	true (1)
3) COc1cc(N)c(Cl)cc1C(=O)NC1CN2CCC(c3ccccc3)CN2C1 (stereo unspecified)	true (1)

Is ED50 strictly under 30 mg/kg for the entry CCN(CC)CCNC(=O)c1cc(Cl)c(N)cc1OC [METOCLOPRAMIDE] ?
true (1)

Is ED50 strictly under 30 mg/kg for the entry `COc1cc(N)c(Cl)cc1C(=O)NC1CN2CCCCN2C1` ?
true (1)

Is ED50 strictly under 30 mg/kg for the entry COc1cc(N)c(Cl)cc1C(=O)NC1CCN2C(C)COCC2C1 (stereo unspecified) ?
false (0)

Is ED50 strictly under 30 mg/kg for the entry `COc1cc(N)c(Cl)cc1C(=O)NC1CN2CC=CCN2C1` ?
false (0)

Is ED50 strictly under 30 mg/kg for the entry `COc1cc(N)c(Cl)cc1C(=O)NC1CN2Cc3ccccc3CN2C1` ?
true (1)

Is ED50 strictly under 30 mg/kg for the entry COc1cc(N)c(Cl)cc1C(=O)NC1CCN2CCOCC2C1 (stereo in doubt; 14) ?
false (0)
